- test_target: Glutamate NMDA receptor
- test_protocol: Binding affinity at TCP site of NMDA receptor was determined in rat brain homogenate by [3H]TCP displacement.
parameter_measured: log10 of Ki (log10 of the value in nM)
Friendly reminder: values = log10 of Ki, unit nM.

Record excerpt, results attached:
- compound: "c1coc(C2(c3ccco3)CC3c4ccccc4C2c2cccc[n+]23)c1 (stereo not given)"
  log10 of Ki: 0.28
- compound: "COc1ccc(C2(c3ccc(OC)cc3)CC3c4ccccc4C2c2cccc[n+]23)cc1 (stereo not given)"
  log10 of Ki: 4.45
- compound: "Brc1cccc(C2(c3cccc(Br)c3)CC3c4ccccc4C2c2cccc[n+]23)c1 (stereo not given)"
  log10 of Ki: 2.27
- compound: "c1ccc2c(c1)C1CC(c3cc[nH]c3)(c3cc[nH]c3)C2c2cccc[n+]21 (stereo not given)"
  log10 of Ki: 0.49
- compound: "c1csc(C2(c3cccs3)CC3c4ccccc4C2c2cccc[n+]23)c1 (stereo not given)"
  log10 of Ki: 0.32
- compound: "c1ccc2c(c1)C1CC(c3cc[nH]n3)(c3cc[nH]n3)C2c2cccc[n+]21 (stereo not given)"
  log10 of Ki: 1.11

[ask] What measured log10 of Ki goes with c1ccc2c(c1)C1CC(c3ncc[nH]3)(c3ncc[nH]3)C2c2cccc[n+]21 (stereo not given) ?
[reply] 3.22

[ask] What measured log10 of Ki goes with c1ccc(C2(c3ccccc3)CC3c4ccccc4C2c2cccc[n+]23)cc1 (stereo not given) ?
[reply] 0.91

[ask] What measured log10 of Ki goes with c1ccc2c(c1)C1CC(c3cncs3)(c3cncs3)C2c2cccc[n+]21 (stereo not given) ?
[reply] 2.08

[ask] What measured log10 of Ki goes with c1cncc(C2(c3cccnc3)CC3c4ccccc4C2c2cccc[n+]23)c1 (stereo not given) ?
[reply] 3.36
